# System: MOLT-4 leukemia
# Test Name: NCI tumour cell line growth inhibition, 48 h; in the data active means GI50 below about 0.43 µM; inactive means the rest
// classify into t for active, f for inactive

Please state the recorded outcome for this compound: O=c1cc(-c2ccccc2)nc2cc(-c3ccco3)[nH]n12
f

Please answer likewise for O=C1CCCC(=O)C1C(=O)c1ccc(C(F)(F)F)cc1[N+](=O)[O-]
f

Please answer likewise for COc1ccc2c([nH]c3cc(O)c(C)cc32)c1CC=C(C)C
f

Please answer likewise for COc1cc(C(=O)Nc2cc(O)c(C/C=C(\C)CCC=C(C)C)c(O)c2)cc2c1O[C@]1(C)CC[C@@H](O)C(C)(C)[C@H]1C2
t

Please answer likewise for CC(C)NCCCCCNc1cc(O)cc2cccnc12
f
